From: patent US20200123233A1

As shown below, each of these binders has a reported CVS neutralizing antibody titre (RFFIT): IU/mg value.
target: Rabies virus glycoprotein G, strain CVS-11 (Challenge Virus Standard-11, ATCC VR 959) (Rabies virus, strain CVS-11); assay: cell-based or functional assay
Give just the number in IU/mg; leave the unit off.

binder	uom	recorded-result
214-E8 25GS 212-C12 (VHH) EVQLVESGGGSVQAGGSLRLSCAASGGTFNPYVMAWFRQAPGNEREFVARIRWSGGDAYYDDSVKGRFAITRDAAKNTVHLQMNSLKPEDTAVYYCAAATYGYGSYTYGGSYDLWGQGTQVTVSSGGGGSGGGGSGGGGSGGGGSGGGGSEVQLVESGGGLVQPGGSLRLSCAASGFTFGSSDMSWVRQAPGKGPEWVSGINSGGGRTLYADSVKGRFTISRDNAKNTLYLQMNSLKSEDTAVYYCATDLYGSSWYTDYWSQGTQVTVSS	IU/mg	573

Next, consider the following binder.
Let me know recorded CVS neutralizing antibody titre (RFFIT): IU/mg for 213-E6 15GS 213-H7 (VHH) EVQLVESGGGLVQAGASLRLSCAASGSTLSRYGVGWFRQAPGKERELVASVDWSGSRTYYADSVKGRFTISRDNAKNTGYLQMNSLKPDDTAVYYCAADSSVVPGIEKYDDWGLGTQVTVSSGGGGSGGGGSGGGGSEVQLVESGGGLVQAGGSLRLSCAASGRTLSSYRMGWFRQAPGKEREFISTISWNGRSTYYADSVKGRFIFSEDNAKNTVYLQMNSLKPEDTAVYYCAAALIGGYYSDVDAWSYWGPGTQVTVSS , thanks.
4250
